The values you see were collected from paper PMC7265341.

# study.system: CDK1/Cyclin E1 (Homo sapiens, UniProt P06493)
# Sequence (P06493 whole entry): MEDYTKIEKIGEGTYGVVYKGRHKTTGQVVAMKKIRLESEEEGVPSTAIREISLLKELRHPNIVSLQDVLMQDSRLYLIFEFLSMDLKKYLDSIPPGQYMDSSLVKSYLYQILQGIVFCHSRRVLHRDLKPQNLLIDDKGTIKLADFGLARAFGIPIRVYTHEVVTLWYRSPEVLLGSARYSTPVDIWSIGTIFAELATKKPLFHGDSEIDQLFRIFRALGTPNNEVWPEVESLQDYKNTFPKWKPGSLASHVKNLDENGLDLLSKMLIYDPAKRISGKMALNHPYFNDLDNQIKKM
# Sequence (P24864 whole entry partner): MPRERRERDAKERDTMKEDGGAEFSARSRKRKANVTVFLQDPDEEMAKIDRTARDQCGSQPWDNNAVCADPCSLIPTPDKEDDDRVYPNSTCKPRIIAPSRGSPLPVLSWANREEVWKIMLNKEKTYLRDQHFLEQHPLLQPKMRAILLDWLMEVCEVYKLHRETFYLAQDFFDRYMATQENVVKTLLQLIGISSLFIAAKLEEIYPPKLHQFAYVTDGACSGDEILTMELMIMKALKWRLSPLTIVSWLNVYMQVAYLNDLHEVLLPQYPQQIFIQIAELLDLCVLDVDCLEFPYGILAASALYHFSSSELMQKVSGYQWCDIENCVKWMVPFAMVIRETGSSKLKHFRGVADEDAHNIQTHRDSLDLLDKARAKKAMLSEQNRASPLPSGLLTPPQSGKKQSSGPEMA
# assay: NanoBRET live-cell target engagement, CDK1-NanoLuc/Cyclin E1 in HEK-293
# Format: binding
# condition.context: CDK1/E1; experiment 1; read-out: Inhibition at 10µM (%)
# inhibition at 10 µM per record follows
property.label: inhibition at 10 µM (%)

In [3]: df
Out[3]:
                                   compound  recorded_result
0  COc1ccc(F)cc1-c1cc(NC(=O)C2CCCNC2)ncc1Cl (stereo not drawn)             76.7
1  CN1CCN(Cc2ccc(NC(=O)Nc3ccc(Oc4ccnc(N)n4)cc3)cc2C(F)(F)F)CC1             66.2
2  CN1CC[C@H](c2c(O)cc(O)c3c(=O)cc(-c4ccccc4Cl)oc23)[C@H](O)C1             65.7
3  COc1ccccc1-c1cc(Nc2cccc(CS(N)(=O)=O)c2)ncn1             30.7
4  Cn1cc(-c2ccc(-c3cncc(Cl)c3N3CCC4(CCNC4=O)CC3)cc2)cn1             21.3
5  CC(C)N1CCN(c2ccc(Nc3ncc4cc5n(c4n3)C3(CCCCC3)CNC5=O)nc2)CC1             12.1

* * *

# study.system: CDK11B/Cyclin L2 (Homo sapiens, UniProt P21127)
# Sequence (P21127 1-782 isoform P21127-2): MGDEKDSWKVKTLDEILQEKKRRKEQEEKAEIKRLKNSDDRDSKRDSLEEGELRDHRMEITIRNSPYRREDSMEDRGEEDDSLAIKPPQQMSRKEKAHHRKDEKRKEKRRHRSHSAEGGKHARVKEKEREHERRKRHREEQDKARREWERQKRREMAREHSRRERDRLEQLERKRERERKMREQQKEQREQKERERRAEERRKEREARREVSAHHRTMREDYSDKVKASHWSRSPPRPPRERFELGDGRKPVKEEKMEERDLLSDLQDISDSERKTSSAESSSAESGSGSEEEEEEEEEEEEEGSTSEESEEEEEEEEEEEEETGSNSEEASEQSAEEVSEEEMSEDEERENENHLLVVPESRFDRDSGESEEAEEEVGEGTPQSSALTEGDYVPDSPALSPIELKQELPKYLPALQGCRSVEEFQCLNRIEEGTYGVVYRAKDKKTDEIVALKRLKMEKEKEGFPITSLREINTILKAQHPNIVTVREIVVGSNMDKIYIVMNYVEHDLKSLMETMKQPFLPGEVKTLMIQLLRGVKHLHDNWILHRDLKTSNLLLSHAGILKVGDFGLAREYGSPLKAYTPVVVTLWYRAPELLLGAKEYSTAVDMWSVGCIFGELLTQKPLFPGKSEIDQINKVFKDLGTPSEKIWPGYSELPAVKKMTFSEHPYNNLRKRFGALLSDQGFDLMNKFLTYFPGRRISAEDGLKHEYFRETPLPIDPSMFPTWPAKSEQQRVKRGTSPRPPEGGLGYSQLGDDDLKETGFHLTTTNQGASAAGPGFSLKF
# assay: NanoBRET live-cell target engagement, CDK11B-NanoLuc/Cyclin L2 in HEK-293
# Format: binding
# condition.context: independent experiment 1; read-out: CDK11b/L2 IC50
property.label: IC50 (nM)

>>> df
                              record_smiles  property_label  recorded_result
0  CN1C/C=C/CCOc2cccc(c2)-c2ccnc(n2)Nc2cccc(c2)C1            IC50               49

* * *

# CDK8/C Inhibition at 10µM (%) per record follows
# study.system: CDK8/Cyclin C (Homo sapiens, UniProt P49336)
# Sequence (P49336 whole entry): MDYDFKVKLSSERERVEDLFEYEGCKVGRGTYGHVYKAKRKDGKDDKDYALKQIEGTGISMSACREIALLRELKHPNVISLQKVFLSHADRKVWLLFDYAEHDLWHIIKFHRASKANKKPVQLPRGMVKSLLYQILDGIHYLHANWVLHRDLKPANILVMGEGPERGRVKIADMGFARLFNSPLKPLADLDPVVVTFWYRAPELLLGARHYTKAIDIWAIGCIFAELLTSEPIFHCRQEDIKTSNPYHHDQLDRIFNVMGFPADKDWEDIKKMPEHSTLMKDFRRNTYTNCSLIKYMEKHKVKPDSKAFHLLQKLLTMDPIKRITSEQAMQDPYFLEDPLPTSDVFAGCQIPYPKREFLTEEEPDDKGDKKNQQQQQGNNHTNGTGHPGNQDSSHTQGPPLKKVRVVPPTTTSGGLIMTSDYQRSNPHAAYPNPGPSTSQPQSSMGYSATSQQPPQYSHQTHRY
# Sequence (P24863 whole entry partner): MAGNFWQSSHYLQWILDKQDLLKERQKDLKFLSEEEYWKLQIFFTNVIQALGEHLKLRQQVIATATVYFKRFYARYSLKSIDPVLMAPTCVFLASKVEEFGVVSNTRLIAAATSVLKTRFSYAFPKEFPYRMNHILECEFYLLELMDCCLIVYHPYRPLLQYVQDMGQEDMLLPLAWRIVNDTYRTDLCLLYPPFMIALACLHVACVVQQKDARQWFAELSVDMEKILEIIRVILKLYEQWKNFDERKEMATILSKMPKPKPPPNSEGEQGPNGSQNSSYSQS
# assay: NanoBRET live-cell target engagement, NanoLuc-CDK8/Cyclin C in HEK-293
# Type: binding
# condition.context: 10µM; average of experiments
property.label: CDK8/C Inhibition at 10µM (%)

>>> df
                                   molecule  recorded_result
0             O=C1NCCc2[nH]c(-c3ccncc3)cc21            97.7%
1   O=C1NC(=NCc2cccs2)S/C1=C\c1ccc2ncccc2c1            17.8%
2  Cc1c(Br)c(Br)c2c3c1nc(N1CCNCC1)n3CCC2.Cl [SEL 120-34A]            97.3%
3  CN(C)C/C=C/C(=O)Nc1ccc(C(=O)Nc2cccc(Nc3ncc(Cl)c(-c4c[nH]c5ccccc45)n3)c2)cc1            62.9%

* * *

# inhibition at 10 µM per record follows
# study.system: CDK13/Cyclin K (Homo sapiens, UniProt Q14004)
# Sequence (O75909 whole entry): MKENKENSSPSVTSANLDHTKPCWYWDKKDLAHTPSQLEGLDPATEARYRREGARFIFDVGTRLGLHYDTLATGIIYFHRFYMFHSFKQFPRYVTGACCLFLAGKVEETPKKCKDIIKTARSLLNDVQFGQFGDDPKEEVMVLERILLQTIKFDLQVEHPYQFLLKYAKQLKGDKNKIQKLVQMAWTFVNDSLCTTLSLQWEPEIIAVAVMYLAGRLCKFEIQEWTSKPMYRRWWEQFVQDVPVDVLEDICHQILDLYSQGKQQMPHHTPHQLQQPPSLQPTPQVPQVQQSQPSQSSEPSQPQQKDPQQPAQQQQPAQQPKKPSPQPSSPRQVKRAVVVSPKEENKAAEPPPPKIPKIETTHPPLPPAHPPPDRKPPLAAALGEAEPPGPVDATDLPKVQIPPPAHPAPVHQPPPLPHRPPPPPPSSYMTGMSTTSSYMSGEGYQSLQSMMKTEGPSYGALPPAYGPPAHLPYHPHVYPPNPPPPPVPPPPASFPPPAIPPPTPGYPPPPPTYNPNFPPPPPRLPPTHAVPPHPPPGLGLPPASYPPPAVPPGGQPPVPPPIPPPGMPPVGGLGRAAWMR
# Sequence (Q14004 other isoform, or with tags, fused parts or gaps): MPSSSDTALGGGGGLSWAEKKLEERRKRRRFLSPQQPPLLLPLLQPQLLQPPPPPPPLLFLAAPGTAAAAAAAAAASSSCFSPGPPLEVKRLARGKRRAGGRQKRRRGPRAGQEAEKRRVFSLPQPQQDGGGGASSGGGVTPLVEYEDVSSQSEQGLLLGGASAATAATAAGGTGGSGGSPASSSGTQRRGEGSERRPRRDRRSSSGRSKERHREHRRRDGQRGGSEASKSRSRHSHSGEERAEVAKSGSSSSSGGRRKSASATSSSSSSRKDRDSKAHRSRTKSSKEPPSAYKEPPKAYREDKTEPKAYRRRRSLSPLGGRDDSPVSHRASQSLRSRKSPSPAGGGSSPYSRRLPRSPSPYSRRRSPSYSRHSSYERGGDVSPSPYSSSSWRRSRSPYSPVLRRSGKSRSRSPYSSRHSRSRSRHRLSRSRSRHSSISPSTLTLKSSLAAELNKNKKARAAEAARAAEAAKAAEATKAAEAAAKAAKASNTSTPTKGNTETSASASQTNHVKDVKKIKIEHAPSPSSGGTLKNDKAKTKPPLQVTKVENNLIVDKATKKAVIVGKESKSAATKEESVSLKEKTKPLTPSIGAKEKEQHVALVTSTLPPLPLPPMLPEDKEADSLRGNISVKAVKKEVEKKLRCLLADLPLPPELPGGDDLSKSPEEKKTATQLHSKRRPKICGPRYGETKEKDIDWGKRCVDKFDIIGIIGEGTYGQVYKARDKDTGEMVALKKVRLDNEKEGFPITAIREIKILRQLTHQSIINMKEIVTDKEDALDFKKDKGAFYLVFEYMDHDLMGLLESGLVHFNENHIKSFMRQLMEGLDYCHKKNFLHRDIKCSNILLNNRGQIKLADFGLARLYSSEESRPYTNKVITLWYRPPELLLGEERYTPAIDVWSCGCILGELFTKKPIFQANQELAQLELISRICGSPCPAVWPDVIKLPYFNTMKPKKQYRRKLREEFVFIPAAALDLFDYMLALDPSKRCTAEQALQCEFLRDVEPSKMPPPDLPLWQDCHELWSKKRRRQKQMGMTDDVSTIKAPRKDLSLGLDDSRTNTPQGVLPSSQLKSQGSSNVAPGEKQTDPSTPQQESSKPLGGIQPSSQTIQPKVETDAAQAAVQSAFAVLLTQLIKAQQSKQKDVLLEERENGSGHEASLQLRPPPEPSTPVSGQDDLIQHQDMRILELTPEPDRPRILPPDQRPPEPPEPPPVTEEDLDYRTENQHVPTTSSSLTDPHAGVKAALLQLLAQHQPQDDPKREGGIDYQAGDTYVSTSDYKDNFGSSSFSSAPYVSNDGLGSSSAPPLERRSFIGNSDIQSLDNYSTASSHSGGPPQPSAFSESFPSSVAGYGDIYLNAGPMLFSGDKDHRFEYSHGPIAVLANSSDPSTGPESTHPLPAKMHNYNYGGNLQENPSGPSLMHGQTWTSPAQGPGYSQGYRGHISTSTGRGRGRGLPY
# assay: NanoBRET live-cell target engagement, CDK13-NanoLuc/Cyclin K in HEK-293
# Assay type: binding
# condition.context: 10µM; independent experiment 2; read-out: CDK13/K Inhibition at 10µM (%)
property.label: inhibition at 10 µM (%)

In [3]: df
Out[3]:
                              record_smiles                              study_system  recorded_result
0  CC(=O)c1c(C)c2cnc(Nc3ccc(N4CCNCC4)cn3)nc2n(C2CCCC2)c1=O  CDK13/Cyclin K (Homo sapiens, UniProt Q14004)             15.6
1  CC(C)[C@H](CO)Nc1nc(Nc2ccc(C(=O)O)c(Cl)c2)c2ncn(C(C)C)c2n1  CDK13/Cyclin K (Homo sapiens, UniProt Q14004)              1.7
2  CN1CCN(c2ccc(Nc3ncc4cc5n(c4n3)C3(CCCCC3)CNC5=O)nc2)CC1  CDK13/Cyclin K (Homo sapiens, UniProt Q14004)              4.7
3  CN(C)C/C=C/C(=O)Nc1ccc(C(=O)N2CCC[C@@H](Nc3ncc(Cl)c(-c4c[nH]c5ccccc45)n3)C2)cc1  CDK13/Cyclin K (Homo sapiens, UniProt Q14004)             57.6
4  COCCN1CCN(Cc2ccc(-c3n[nH]c4c3C(=O)c3c(NC(=O)NN5CCOCC5)cccc3-4)cc2)CC1  CDK13/Cyclin K (Homo sapiens, UniProt Q14004)             64.5
5  CN1C/C=C/CCOc2cccc(c2)-c2ccnc(n2)Nc2cccc(c2)C1  CDK13/Cyclin K (Homo sapiens, UniProt Q14004)             79.6
6  CN(C)C(=O)c1cc2cnc(Nc3ccc(N4CCNCC4)cn3)nc2n1C1CCCC1  CDK13/Cyclin K (Homo sapiens, UniProt Q14004)             -2.8
7  CC(C)CC(=O)Nc1[nH]nc2c1CN(C(=O)C1CCN(C)CC1)C2(C)C  CDK13/Cyclin K (Homo sapiens, UniProt Q14004)             10.4
